target: Poly(ADP-ribose) glycohydrolase (Homo sapiens)
Sequence (Q86W56 whole entry): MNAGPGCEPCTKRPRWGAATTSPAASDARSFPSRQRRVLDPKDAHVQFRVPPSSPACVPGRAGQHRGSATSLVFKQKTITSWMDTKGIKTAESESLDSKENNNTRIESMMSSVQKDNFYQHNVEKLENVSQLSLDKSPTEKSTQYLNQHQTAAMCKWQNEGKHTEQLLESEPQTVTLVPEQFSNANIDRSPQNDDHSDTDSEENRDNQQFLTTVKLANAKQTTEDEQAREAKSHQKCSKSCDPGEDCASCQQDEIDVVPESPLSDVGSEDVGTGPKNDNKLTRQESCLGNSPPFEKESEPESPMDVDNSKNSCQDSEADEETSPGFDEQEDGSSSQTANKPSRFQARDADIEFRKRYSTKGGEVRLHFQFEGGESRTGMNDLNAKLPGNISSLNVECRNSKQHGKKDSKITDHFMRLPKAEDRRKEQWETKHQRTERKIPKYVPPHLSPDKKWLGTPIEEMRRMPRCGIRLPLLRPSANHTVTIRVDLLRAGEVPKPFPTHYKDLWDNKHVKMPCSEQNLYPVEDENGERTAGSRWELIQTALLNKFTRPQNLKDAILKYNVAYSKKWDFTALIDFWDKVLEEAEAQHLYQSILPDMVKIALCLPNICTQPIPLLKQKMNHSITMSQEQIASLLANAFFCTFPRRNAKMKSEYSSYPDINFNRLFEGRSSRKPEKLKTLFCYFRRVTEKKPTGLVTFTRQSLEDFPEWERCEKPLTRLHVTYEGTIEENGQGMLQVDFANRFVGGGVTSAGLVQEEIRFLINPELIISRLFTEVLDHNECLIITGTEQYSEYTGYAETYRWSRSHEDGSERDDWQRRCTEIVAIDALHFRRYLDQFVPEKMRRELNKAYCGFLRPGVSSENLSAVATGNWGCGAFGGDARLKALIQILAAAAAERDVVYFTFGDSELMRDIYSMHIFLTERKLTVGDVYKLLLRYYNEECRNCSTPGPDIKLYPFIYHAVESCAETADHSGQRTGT
recorded_metric: IC50

[in] Lookup: IC50 / Poly(ADP-ribose) glycohydrolase (Homo sapiens) / CO/N=c1\[nH]c2c(N3CCN(C(=O)C4(C(F)(F)F)CC4)[C@H](C)C3)cc(S(=O)(=O)NC3(C)CC3)cc2c(=O)n1Cc1cnn(C)c1 [US20260042754, Example 32]
[out] < 30 nM

Source listed as BindingDB's records for patent US20260042754.
